Give measured GI50 for each item. Keep answers brief.
system: MDA-MB-231 breast; test: NCI tumour cell line growth inhibition, 48 h

As a guide, the following entries are already answered.
                                        mol     assayed_system  assay_endpoint  value_observed
0             Cc1cn2c(=O)n(c1=O)Cc1ccccc1C2  MDA-MB-231 breast            GI50         5.84 µM
1  COc1ccc(-c2ccccc2)cc1-c1c(Nc2cc(Cl)cc(Cl)c2O)c(=O)c1=O  MDA-MB-231 breast            GI50          1.2 µM

Note: attention shifts to another entry.
query: Param item = C=C(C)[C@@H]1CC[C@]2(C(=O)NCCNCCNCCN)CC[C@]3(C)[C@H](CC[C@@H]4[C@@]5(C)CCC(=O)C(C)(C)[C@@H]5CC[C@]43C)[C@@H]12 ; retrieve measured GI50.
result: 8.04 µM

Taken from PubChem BioAssay (NCI).
